These entries and their values trace back to ChEMBL document CHEMBL1201862.

system: SK-MEL-28; assay: NCI tumour cell line growth inhibition, 48 h
Active and inactive are the calls of the source. Cut-off read from the data, not from the text of the source: active = GI50 up to about 1.1 µM and inactive = higher.
Here the recorded GI50 is given for each entry.

Example entries and their recorded answers appear below.
[[record]]
compound = "CCCCCCCCCCCCC(Br)C(=O)NCC(N)=O (centres undefined)"
measured_metric = "GI50"
reported = "15.2 µM (inactive)"

[[record]]
compound = "Cc1cc(O)c2c(c1O)C(=O)C13C(=C(O)C4C(O)C1C1C(O)C3C(O)=C3C(=O)c5c(O)cc(C)c(O)c5C(=O)C341)C2=O (centres undefined)"
measured_metric = "GI50"
reported = "0.106 µM (active)"

[[record]]
compound = "CC(C)(O)C1CC(=O)C(C)(C2C(O)CC3(C)C4CC=C5C(CCC(O)C5(C)C)C4(C)C(=O)CC23C)O1 (centres undefined)"
measured_metric = "GI50"
reported = "> 100 µM (inactive)"


Note: attention shifts to another entry.
Kindly note the recorded GI50 for O=C1C(Cl)C(c2cc3cc(Br)ccc3nc2Cl)N1c1ccc(F)c(Cl)c1 (centres undefined) , which is 14.6 µM (inactive)

###

tested on: MOLT-4; experiment: NCI tumour cell line growth inhibition, 48 h
Activity calls are given as the source filed them. No stated cut-off is given here; in the data, active = GI50 up to about 1.1 µM and inactive = higher.
Pick one: 1.0 (active), 0.0 (inactive)

[[record]]
molecule = "O=C(NC(=O)c1ccccc1[N+](=O)[O-])Nc1ccc(Oc2ncc(Cl)cn2)c(C(F)(F)F)c1"
class_name = 1.0

[[record]]
molecule = "CC(C)(C)[C@@H]1NC(=O)CN1C(=O)OCc1ccccc1"
class_name = 0.0

[[record]]
molecule = "OC/C=C(\\I)CCCOCOCc1ccccc1"
class_name = 0.0


Call for entry c1ccc([P+](c2ccccc2)(c2ccccc2)c2ccc(-c3ccc([P+](c4ccccc4)(c4ccccc4)c4ccccc4)cc3)cc2)cc1 :
0.0

Call for entry C=C(C)CNCC(=C)C.Oc1c(Cl)c(Cl)c(Cl)c(Cl)c1Cl :
0.0

Call for entry O=C(O)c1ccc(C(=O)O)c2c(C(=O)O)ccc(C(=O)O)c12 :
0.0

Call for entry Cc1cccc(C)c1NC(=O)Nc1ccc(S(N)(=O)=O)cc1 :
0.0

###

tested on: OVCAR-8; assay: NCI tumour cell line growth inhibition, 48 h
Active and inactive are the calls of the source. Rule as the data show it: active = GI50 up to about 1.1 µM and inactive = higher.
MEASURED_METRIC: GI50

Example entries and their recorded answers appear below.
[[record]]
molecule = "O=c1oc2c3ccc4ccccc4c3n(CCN3CCOCC3)c2c2ccccc12"
measured_metric = "GI50"
reported = "> 100 µM (inactive)"

[[record]]
molecule = "N/N=C(\\C(=O)Nc1c(Cl)cc([N+](=O)[O-])cc1Cl)C(c1cnc2ccc([N+](=O)[O-])cc2n1)[N+](=O)[O-] (stereo not drawn)"
measured_metric = "GI50"
reported = "> 100 µM (inactive)"


Note: attention shifts to another entry.
Kindly note the recorded GI50 for CC1=C2C(=O)c3ccccc3C(=O)[C@H]2C[C@@H](N2CCCC2=O)O1 , which is 50.9 µM (inactive)

###

tested on: BT-549; assay: NCI tumour cell line growth inhibition, 48 h
Activity calls are given as the source filed them. Rule as the data show it: active = GI50 up to about 1.1 µM and inactive = higher.
Here the recorded GI50 is given for each entry.

Example entries and their recorded answers appear below.
[[record]]
molecule = "COc1cc(/C=N/NC(=O)c2c(Cl)c(Cl)c(Cl)c(Cl)c2-c2nc3ccccc3[nH]2)ccc1O"
target = "BT-549"
reported = "21.1 µM (inactive)"

[[record]]
molecule = "CCCCCCCCCCC(O)C1CCC(C(O)CCC(O)C2CCC(CCCCCCC[C@H](O)CC3=C[C@@H](C)OC3=O)O2)O1 (some centres not stated)"
target = "BT-549"
reported = "0.001 µM (active)"

[[record]]
molecule = "CCN(CC)CCNc1c2ccccc2nc2cccc([N+](=O)[O-])c12"
target = "BT-549"
reported = "0.005 µM (active)"

[[record]]
molecule = "O=c1cc2oc3ccc4ccccc4c3cc-2c(=O)[nH]1"
target = "BT-549"
reported = "1.34 µM (inactive)"

[[record]]
molecule = "C=CCc1cccc2cc(C(=O)Nc3ccc(C)cc3)c(=N)oc12"
target = "BT-549"
reported = "> 100 µM (inactive)"


Kindly note the recorded GI50 for FC(F)(F)C1(C(F)(F)F)O[Si]2(OC(C(F)(F)F)(C(F)(F)F)c3ccccc32)c2ccccc21 , which is 14.5 µM (inactive)

Kindly note the recorded GI50 for CN(C)c1nc(N(C)C)nc(N(C)C23CC4CC(CC(C4)C2)C3)n1 , which is 27.7 µM (inactive)
